molecular target: ADRA1A (Homo sapiens); construct: purchased Promega (in-house HiBiT-GPCR construct library, NanoBRET); assay: NanoBRET screen HiBiT-ADRA1A in HEK293; assay type: binding; details: ADRA1A; tracer 1μM
Sequence (P35348 whole entry): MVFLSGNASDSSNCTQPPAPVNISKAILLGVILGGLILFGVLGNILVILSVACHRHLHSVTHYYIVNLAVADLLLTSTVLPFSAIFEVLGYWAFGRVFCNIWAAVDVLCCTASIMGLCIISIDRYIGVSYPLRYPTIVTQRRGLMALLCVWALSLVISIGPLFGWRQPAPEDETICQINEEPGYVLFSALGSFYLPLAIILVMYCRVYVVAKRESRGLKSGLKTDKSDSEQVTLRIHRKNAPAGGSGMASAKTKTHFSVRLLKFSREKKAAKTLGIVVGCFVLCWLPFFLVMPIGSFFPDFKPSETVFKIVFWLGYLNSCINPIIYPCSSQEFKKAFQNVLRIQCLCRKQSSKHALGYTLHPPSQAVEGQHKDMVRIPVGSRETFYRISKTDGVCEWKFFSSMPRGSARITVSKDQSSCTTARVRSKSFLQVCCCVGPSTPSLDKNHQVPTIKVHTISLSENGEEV
PROPERTY LABEL: NanoBRET Fold Response
Reply briefly: the number, and no unit.

COMPOUND: O=C(CCc1ccc2n1[B-](F)(F)[N+]1=C(c3ccc[nH]3)C=CC1=C2)NCc1ccc(C(=O)NCCOCCC(=O)N[C@@H]2CC[C@@]3(O)[C@H]4Cc5ccc(O)c6c5[C@@]3(CCN4CC3CC3)[C@H]2O6)cc1 [Naltrexone-3-NB590]
NanoBRET Fold Response: 0.96
--
COMPOUND: O=C(CCc1ccc2n1[B-](F)(F)[N+]1=C(c3ccc[nH]3)C=CC1=C2)NCCOCCOCCNC(=O)OCCOCCN1CCN(C2=Nc3ccccc3Sc3ccccc32)CC1 [Quetiapine-a-2-NB590]
NanoBRET Fold Response: 3.51
--
COMPOUND: COc1ccccc1N1CCN(CCCCN2C(=O)c3ccc(CNC(=O)CCOCCNC(=O)c4ccc(CNC(=O)CCc5ccc6n5[B-](F)(F)[N+]5=C(c7ccc[nH]7)C=CC5=C6)cc4)cc3C2=O)CC1 [NAN-190-3-NB590]
NanoBRET Fold Response: 3.91

Q: Can you look up the measured NanoBRET Fold Response of N#CN=C(NCCCOc1cccc(CN2CCCCC2)c1)NCCNC(=O)CCOCCOCCOCCOCCNC(=O)CCc1ccc2n1[B-](F)(F)[N+]1=C(c3ccc[nH]3)C=CC1=C2 [Aminopotentidine-2-NB590] for me?
Result: 1.00

Q: Can you look up the measured NanoBRET Fold Response of CCCn1c(=O)c2[nH]c(-c3ccc(OCC(=O)NCCNC(=O)CCOCCNC(=O)c4ccc(CNC(=O)CCc5ccc6n5[B-](F)(F)[N+]5=C(c7ccc[nH]7)C=CC5=C6)cc4)cc3)nc2n(CCC)c1=O [XAC-3-NB590] for me?
Result: 0.94

Q: Can you look up the measured NanoBRET Fold Response of CC(C)N(CC[C@H](c1ccccc1)c1cc(CCNC(=O)c2ccc(CNC(=O)CCc3ccc4n3[B-](F)(F)[N+]3=C(c5ccc[nH]5)C=CC3=C4)cc2)ccc1O)C(C)C [Tolterodine-BZ-NB590] for me?
Result: 2.17

Q: Can you look up the measured NanoBRET Fold Response of Cc1cc2c(s1)Nc1ccccc1N=C2N1CCN(CCCNC(=O)CCOCCOCCOCCOCCNC(=O)CCc2ccc3n2[B-](F)(F)[N+]2=C(c4ccc[nH]4)C=CC2=C3)CC1 [Olanzapine-a-2-NB590] for me?
Result: 3.58

Q: Can you look up the measured NanoBRET Fold Response of COc1ccccc1N1CCN(CCCCN2C(=O)c3ccc(CNC(=O)CCOCCOCCOCCOCCNC(=O)CCc4ccc5n4[B-](F)(F)[N+]4=C(c6ccc[nH]6)C=CC4=C5)cc3C2=O)CC1 [NAN-190-2-NB590] for me?
Result: 4.33

Q: Can you look up the measured NanoBRET Fold Response of O=C(CCOCCOCCOCCOCCNC(=O)CCc1ccc2n1[B-](F)(F)[N+]1=C(c3ccc[nH]3)C=CC1=C2)NCCCN1CCN(C2=Nc3ccccc3Oc3ccc(Cl)cc32)CC1 [Loxapine-a-2-NB590] for me?
Result: 3.42

Q: Can you look up the measured NanoBRET Fold Response of CC(C)N(CC[C@H](c1ccccc1)c1cc(CCNC(=O)CCOCCOCCOCCOCCNC(=O)CCc2ccc3n2[B-](F)(F)[N+]2=C(c4ccc[nH]4)C=CC2=C3)ccc1O)C(C)C [Tolterodine-2-NB590] for me?
Result: 0.98

Q: Can you look up the measured NanoBRET Fold Response of Cc1nc2n(c(=O)c1CCN1CCC(c3noc4cc(F)ccc34)CC1)CCCC2OC(=O)NCCOCCOCCOCCOCCNC(=O)CCc1ccc2n1[B-](F)(F)[N+]1=C(c3ccc[nH]3)C=CC1=C2 (centres unmarked) [Risperidone-2-NB590] for me?
Result: 3.45
